# System: SK-MEL-28 melanoma
# Test summary: NCI-60 one-dose screen, 48 h
# Stated conditions: 10 µM unless noted
Compounds without any hit were thinned out: in the full panel of roughly 83,000, 20% have a hit. The source made the active and inactive calls. Rule for the calls: active = growth percent below 10; inactive = the rest.
The reply should name one outcome from active, inactive

[[record]]
molecule = "O=C(CSc1nnc(-c2cc3c([nH]c4ccccc43)c(-c3cccc(O)c3)n2)n1-c1ccccc1)c1ccccc1"
assayed_system = "SK-MEL-28 melanoma"
category = "inactive"


q: Field: outcome | Entry: "O=c1c(-c2ccc3c(c2)OCO3)coc2c(CO)c(O)ccc12"
a: inactive

q: Field: outcome | Entry: "O=C1C(SCCO)=C(SCCO)C(=O)N1c1ccc(-c2ccccc2)cc1"
a: active
